Hey, just so you know, these numbers are from ChEMBL document CHEMBL4823320.

Exercise: state measured pIC50 for each of the compounds provided.
// pIC50: -log10(molar conc.)

# "O=C(Nc1nc2cc(O)c(O)cc2s1)c1ccc(Cl)cc1" with Genome polyprotein (dengue virus type 2, UniProt P29990): pIC50 is 5.22

# "O=C(Nc1ccc(I)cc1)c1nc2cc(O)c(O)cc2s1" with Genome polyprotein (dengue virus type 2, UniProt P29990): pIC50 is 5.61

# "O=C(Nc1ccccc1)[C@@H]1CCCN1C(=O)c1nc2cc(O)c(O)cc2s1" with Genome polyprotein (dengue virus type 2, UniProt P29990): pIC50 is 4.94

# "O=C(Nc1ccccc1)c1cc2cc(O)c(O)cc2[nH]1" with Genome polyprotein (dengue virus type 2, UniProt P29990): pIC50 is 5.16

# "O=C(Nc1ccccc1)[C@@H]1CCCN1C(=O)c1cc2cc(O)c(O)cc2o1" with Genome polyprotein (dengue virus type 2, UniProt P29990): pIC50 is 5.19
